Measured EC50 of individual entries
# target-or-test-system: CMV-specific T cells (Homo sapiens, UniProt Q9NZQ7)
# Sequence (Q9NZQ7 19-290): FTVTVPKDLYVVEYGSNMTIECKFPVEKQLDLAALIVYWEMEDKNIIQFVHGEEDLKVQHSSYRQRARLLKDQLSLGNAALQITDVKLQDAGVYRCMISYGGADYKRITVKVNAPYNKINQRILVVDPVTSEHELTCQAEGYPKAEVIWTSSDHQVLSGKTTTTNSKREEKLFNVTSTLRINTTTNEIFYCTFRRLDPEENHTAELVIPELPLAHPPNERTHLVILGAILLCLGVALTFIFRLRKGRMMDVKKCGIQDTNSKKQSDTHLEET
# method-description: CMV-specific T cell function assay (IFNγ secretion, ELISA)
# Type: cell-based
# condition-info: numeric value; read-out: CMV Recall EC50 values
Positions of bridges follow the written chain, without caps; N, C: chain ends. Non-standard residues stand in square brackets, D forms with d. Residues, ends and D or L forms follow the SMILES beside them. ξ: configuration not given here. Hyp = O=C(O)[C@@H]1C[C@@H](O)CN1; NMeNle = CCCC[C@H](NC)C(=O)O; NMeM = CN[C@@H](CCSC)C(=O)O; NMeA = CN[C@@H](C)C(=O)O; Dap = NC[C@H](N)C(=O)O; ξC = NC(CS)C(=O)O
Only the number, expressed in nM, is required.

Worked set:
CCCC[C@H]1C(=O)N[C@@H](CCCNC(=N)N)C(=O)NC(C(=O)NCC(N)=O)CSCC(=O)N[C@@H](Cc2ccc(O)cc2)C(=O)N(C)[C@@H](C)C(=O)N[C@@H](CC(N)=O)C(=O)N2CCC[C@H]2C(=O)N[C@@H](Cc2cnc[nH]2)C(=O)N[C@@H](CC(C)C)C(=O)N2C[C@H](O)C[C@H]2C(=O)N[C@@H](Cc2c[nH]c3ccccc23)C(=O)N[C@@H](CO)C(=O)N[C@@H](Cc2c[nH]c3ccccc23)C(=O)N(C)[C@@H](C)C(=O)N1C (stereo partly drawn) [Example 9057] ... 112
CCCC[C@H]1C(=O)N[C@@H](CCCNC(=N)N)C(=O)NC(C(=O)NCC(N)=O)CSCC(=O)N[C@@H](Cc2ccc(O)cc2)C(=O)N(C)[C@@H](C)C(=O)N[C@@H](CC(N)=O)C(=O)N2CCC[C@H]2C(=O)N[C@@H](Cc2cnc[nH]2)C(=O)N[C@@H](CC(C)C)C(=O)N2C[C@H](O)C[C@H]2C(=O)N[C@@H](Cc2c[nH]c3ccccc23)C(=O)N[C@@H](CO)C(=O)N[C@@H](Cc2c[nH]c3ccccc23)C(=O)N(C)[C@@H](CCSC)C(=O)N1C (stereo partly drawn) [Example 9026] ... 34.4

# next molecule below
Prompt: Recall and state the measured EC50 for CCCC[C@H]1C(=O)N[C@@H](CCCNC(=N)N)C(=O)NC(C(=O)NCC(N)=O)CSCC(=O)N[C@@H](Cc2ccc(O)cc2)C(=O)N(C)[C@@H](C)C(=O)N[C@@H](CC(N)=O)C(=O)N2CCC[C@H]2C(=O)N[C@@H](CN)C(=O)N[C@@H](CC(C)C)C(=O)N2C[C@H](O)C[C@H]2C(=O)N[C@@H](Cc2c[nH]c3ccccc23)C(=O)N[C@@H](CO)C(=O)N[C@@H](Cc2c[nH]c3ccccc23)C(=O)N(C)[C@@H](CCSC)C(=O)N1C (stereo partly drawn) [Example 9091] ({CH2CO}-Y[NMeA]NP[Dap]L[Hyp]WSW[NMeM][NMeNle]R[ξC]G-NH2; thioether N-14) .
Completion: 5.6
